# TESTED TARGET: human recombinant adrenergic α2B receptor (Homo sapiens, UniProt P18089)
# Construct: expressed in transfected cells; host or cells: CHO-K1
# Sequence (P18089 whole entry): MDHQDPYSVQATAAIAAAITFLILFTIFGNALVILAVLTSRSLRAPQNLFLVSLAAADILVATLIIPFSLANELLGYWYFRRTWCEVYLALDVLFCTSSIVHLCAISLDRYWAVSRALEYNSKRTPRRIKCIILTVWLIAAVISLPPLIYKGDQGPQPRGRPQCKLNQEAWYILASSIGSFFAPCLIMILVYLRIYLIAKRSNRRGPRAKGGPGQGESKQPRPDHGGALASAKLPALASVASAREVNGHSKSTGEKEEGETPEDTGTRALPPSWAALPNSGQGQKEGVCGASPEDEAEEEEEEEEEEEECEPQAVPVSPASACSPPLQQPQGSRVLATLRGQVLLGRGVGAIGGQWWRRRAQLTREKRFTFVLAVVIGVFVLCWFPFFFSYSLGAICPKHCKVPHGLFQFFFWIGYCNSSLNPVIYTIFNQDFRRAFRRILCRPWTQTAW
# PROTOCOL DESCRIPTION: Radioligand binding, adrenergic α2B ([3H]Rauwolscine)
# RUN PARAMETERS: 0.03 μM compound; read-out: Percentage inhibition of ligand binding, Adrenergic α2B
Binary classification by inhibition at 0.03 µM, with 40% as an inclusive lower bound for Met; all other cases are Not met.

Recorded results for 2 compounds are shown here.
- COMPOUND: "Cc1ccc2c(c1)c1c(n2CC(O)C2CCCCC2)CCN(C)C1 (stereo not drawn) [II-91]"
  CLASS: "Not met"
- COMPOUND: "CC(O)(Cn1c2c(c3cc(CO)ccc31)CNCC2)c1cccnc1 (stereo not drawn) [II-104]"
  CLASS: "Not met"

Item Cc1ccc2c(c1)c1c(n2CC(O)c2ccnc3ccccc23)CCN(C)C1 (stereo not drawn) [II-90] with inhibition at 0.03 µM of 40% or above?
Met

Can CN1CCc2c(c3cc(OC(F)(F)F)ccc3n2CC(O)c2ccncc2)C1 (stereo not drawn) [II-67] be said to have inhibition at 0.03 µM at or above 40%?
Met

Quick check: does Cc1cc2c3c(n(CC(C)(O)c4cccnc4)c2cn1)CCN1CCCC31 (stereo not drawn) [II-5] have inhibition at 0.03 µM greater than or equal to 40%?
Not met

Given the entry Cc1ccc2c(c1)c1c(n2CC(C)(OC(=O)C(C)(C)C)c2cccnc2)CCN(C)C1 (single isomer, unassigned) [II-16b] , answer whether its inhibition at 0.03 µM meets or surpasses 40%.
Met

Does the compound Cc1ccc2c(c1)c1c(n2CC(O)c2ccccc2F)CN(C)CC1 (single isomer, unassigned) [II-49a] have recorded inhibition at 0.03 µM that is 40% or more?
Met

State whether the measured inhibition at 0.03 µM reaches 40%, counting equality as reaching it, for CCCCCCC(=O)OC(Cn1c2c(c3cc(C)ccc31)CN(C)CC2)c1ccncc1 (stereo not drawn) [compound 338]
Met

For this compound, is measured inhibition at 0.03 µM 40% or higher? Cc1ccc2c(c1)c1c(n2CC(O)c2ccncc2)CCN(CCO)C1 (stereo not drawn) [II-64]
Met
